Property name: melting point (°C)
The response must be a number in °C with no trailing unit.

Quick note, melting point for CCCCCCCCCCCCCCCCCCNC(=O)[C@@H]1CSC(c2ccc(OC)c(OC)c2)N1.Cl (mixture of isomers) landed at 103

Summary for this compound, CCCCCCCCCCCCCCCCCCNC(=O)[C@@H]1CSC(c2cc(OC)c(OC)c(OC)c2)N1.Cl (mixture of isomers) : melting point is 115

Memo: CCCCCCCCCCCCCCCCCCNC(=O)[C@@H]1CSC(c2c(Cl)cccc2Cl)N1 (mixture of isomers) , reported melting point: 49

Briefly, melting point measured for CCCCCCCCCCCCCCCCCCNC(=O)[C@@H]1CSC(CCCCCCCCCCCC)N1 (mixture of isomers) : 86

Sample CCCCCCCCCCCCCCCCCCNC(=O)[C@@H]1CSC(c2ccc(-c3ccccc3)cc2)N1.Cl (mixture of isomers) ; melting point observed: 130
